method: NCI Yeast Anticancer Drug Screen. Data for the mec2-1 strain (AID 157)
condition.set: S. cerevisiae mec2-1 strain, at 50.0 µM, hits give high values
About 79,000 compounds went through this panel and 15% of them were active in at least one assay; those are over-represented in the sample as a whole.
observable: growth inhibition (%)
Expressed in %, but write only the number.

Fill in the blank: the reported growth inhibition of COc1cc2c(cc1C[N+](C)(C)CSc1ccccc1)-c1ccccc1CC2 is ____.
99.3

Fill in the blank: the reported growth inhibition of Cc1onc(-c2ccccc2Cl)c1C1=N/C(=C/c2cc(Cl)cc(Cl)c2O)C(=O)O1 is ____.
60

Fill in the blank: the reported growth inhibition of C/C=C/[P+](c1ccccc1)(c1ccccc1)c1ccccc1 is ____.
83.3

Fill in the blank: the reported growth inhibition of Oc1ccccc1N=Cc1ccc(Cl)cc1 is ____.
29.1

Fill in the blank: the reported growth inhibition of COc1ccc(/C=C(\NC(=O)c2ccccc2)C(=O)NN(C)c2ccnc3cc(Cl)ccc23)cc1OC is ____.
28.6

Fill in the blank: the reported growth inhibition of CC(=O)C1=C(C)O/C(=C/c2cccc(Cl)c2)C1=O is ____.
71

Fill in the blank: the reported growth inhibition of O=Nn1c2ccccc2c2cc([N+](=O)[O-])ccc21 is ____.
75.8

Fill in the blank: the reported growth inhibition of CCC(=O)Oc1ccc(/C=N/NC(N)=S)nc1 is ____.
87.4

Fill in the blank: the reported growth inhibition of O=C1C(Cl)=C(Cl)C(Cl)(Cl)C(Cl)C1(Cl)Cl (configuration not stated) is ____.
99.5

Fill in the blank: the reported growth inhibition of COc1cc(N)ccc1Nc1c2ccccc2nc2ccccc12 is ____.
42.4

Fill in the blank: the reported growth inhibition of NNC(=S)Nc1cccc2ccccc12 is ____.
23.8

Fill in the blank: the reported growth inhibition of CN(N=O)C(=O)N[C@@H](C=O)[C@@H](O)[C@H](O)[C@H](O)CO is ____.
-7.8

Fill in the blank: the reported growth inhibition of CCCCCC#CCOC(=O)C(=[N+]=[N-])P(=O)(c1ccccc1)c1ccccc1 is ____.
90.5

Fill in the blank: the reported growth inhibition of CC(C)(C)[OH+][O-].[O-]c1ccc(Cl)cc1C=Nc1ccc(Cl)cc1[O-].[O]=[V] is ____.
94.5

Fill in the blank: the reported growth inhibition of Cc1ccc(S(=O)(=O)Nc2ccc3c(c2)C(O)c2ccccc2-3)cc1 (configuration not stated) is ____.
23.1

Fill in the blank: the reported growth inhibition of c1ccc(N2N=C3N(c4ccccc4)C2N3c2ccccc2)cc1 is ____.
69.2

Fill in the blank: the reported growth inhibition of N#C/C(=C\c1ccccc1)c1ccccc1F is ____.
41.7

Fill in the blank: the reported growth inhibition of CC(=O)Oc1ccc(C(=O)c2ccccc2)c(O)c1 is ____.
50

Fill in the blank: the reported growth inhibition of Clc1c(Cl)c(Cl)c2c(nnn2C2CCCO2)c1Cl (configuration not stated) is ____.
85.2

Fill in the blank: the reported growth inhibition of CCC(C)(c1ccc(O)c(C)c1)c1ccc(O)c(C)c1 is ____.
93.3

Fill in the blank: the reported growth inhibition of O=[N+]([O-])/C(C(Cl)=C(Cl)Cl)=C1/OCCS1 is ____.
93.6

Fill in the blank: the reported growth inhibition of CCN(CC)CCNC(=O)c1nn(-c2ccc(Cl)cc2)c2c1CCc1cc(OC)ccc1-2 is ____.
66.4

Fill in the blank: the reported growth inhibition of NC(N)=N/N=C/c1cc(Cl)cc(Cl)c1O is ____.
61.9

Fill in the blank: the reported growth inhibition of S=c1cn[nH]c2ccc(Br)cc12 is ____.
56.3

Fill in the blank: the reported growth inhibition of CCOC(=O)Nc1ccc2c(c1)Cc1ccccc1-2 is ____.
-5.5

Fill in the blank: the reported growth inhibition of Cc1ccc2occ/c(=N\Nc3ccccc3)c2c1 is ____.
52.7

Fill in the blank: the reported growth inhibition of CC1CCC2(C(=O)O)CCC3(C)C(=CCC4C5(C)CC(O)C(O)C(C)(CO)C5C(O)CC43C)C2C1C (configuration not stated) is ____.
82.3

Fill in the blank: the reported growth inhibition of N#C/C(=C1C=C(Br)/C(=N\O)C=C\1Cl)c1cccc2ccccc12 is ____.
90.7

Fill in the blank: the reported growth inhibition of CCCCCC(=O)c1ccc(O)cc1O is ____.
91.8

Fill in the blank: the reported growth inhibition of Nc1ccc2c(=S)c3ccccc3[nH]c2c1 is ____.
28.9

Fill in the blank: the reported growth inhibition of O=S(=O)(c1cc(Cl)ccc1O)c1cc(Cl)ccc1O is ____.
99.7

Fill in the blank: the reported growth inhibition of CN(C)CCN1C(=O)c2cccc3cc([N+](=O)[O-])cc(c23)C1=O is ____.
7.05

Fill in the blank: the reported growth inhibition of CN(N=O)c1ccc(/C=C/c2ccnc3ccccc23)cc1 is ____.
42.5

Fill in the blank: the reported growth inhibition of CN(C)CCNc1cccc2sc3ccc(O)cc3c(=O)c12 is ____.
18.5

Fill in the blank: the reported growth inhibition of N#C/C(=C1C=C/C(=N/O)c2ccccc2/1)c1ccccc1 is ____.
98

Fill in the blank: the reported growth inhibition of Nc1cc(F)cc2c1-c1ccc(F)cc1C2 is ____.
74.6

Fill in the blank: the reported growth inhibition of O=C1CC(=O)N(C2CCCCC2)C(=O)N1c1ccccc1S(=O)(=O)Oc1ccccc1 is ____.
41

Fill in the blank: the reported growth inhibition of CC[C@@]1(OC(=O)CN(C)C)C(=O)OCc2c1cc1n(c2=O)Cc2cc3c(N)cccc3nc2-1 is ____.
58.4

Fill in the blank: the reported growth inhibition of CCOC(=O)c1csc(Br)n1 is ____.
99.5

Fill in the blank: the reported growth inhibition of C/C(=N\NC(=S)NNC(=S)N(C)c1ccccc1)c1ccccn1 is ____.
90.5

Fill in the blank: the reported growth inhibition of CN=C(N)N/N=C(\C)c1ccc2oc3ccc(/C(C)=N/NC(N)=NC)cc3c2c1 is ____.
93.6

Fill in the blank: the reported growth inhibition of Cc1cccc(/C=N/NC(=S)N(C)CCc2ccccn2)n1 is ____.
86.7

Fill in the blank: the reported growth inhibition of CO[C@@]12[C@H](COC(N)=O)C3=C(C(=O)C(C)=C(N)C3=O)N1C[C@@H]1N[C@@H]12 is ____.
63.9

Fill in the blank: the reported growth inhibition of NP1(Oc2ccc(F)cc2)=NP(N)(Oc2ccc(F)cc2)=NP(Oc2ccc(F)cc2)(Oc2ccc(F)cc2)=N1 (configuration not stated) is ____.
84.7

Fill in the blank: the reported growth inhibition of CCCCC(CC)C(=O)Oc1ccc(C(=O)c2ccccc2)c(O)c1 (configuration not stated) is ____.
75.2

Fill in the blank: the reported growth inhibition of COc1cc(CNc2ccc(C(C)C)cc2)cc(OC)c1OC is ____.
25.4

Fill in the blank: the reported growth inhibition of N#CSC1CCCCNC1=O (configuration not stated) is ____.
78.3

// provenance: PubChem BioAssay (NCI)
